Assay: Binding affinity to hairpin DNA by surface plasmon resonance based assay
Property: Kd (µM)
Numbers only, in µM.

Query OC[C@H]1O[C@@H](OCCN2c3ccccc3Sc3ccccc32)[C@H](O)[C@@H](O)[C@@H]1O yields Kd of 140

* * *

Assay: Binding affinity to ATT-bulge-DNA by surface plasmon resonance based assay
Property: pKi
One number for each entry, as −log10 of the molar value.

Query OC[C@H]1O[C@@H](OCCN2c3ccccc3Sc3ccccc32)[C@H](O)[C@@H](O)[C@@H]1O yields pKi of 4.38

The origin of these recorded values is ChEMBL document CHEMBL1152156.
